assay: Cytotoxic activity on normal cells, MTT viability assay; type: cell-based, human; settings: human, MRC-5 normal lung fibroblast cells; MRC-5; sample conc. 2.5 µM; Table S12
observable: viability at 24 h, 2.5 µM (%)
Provide only the numeric value, understood in %.

Which viability at 24 h, 2.5 µM value is on record for CC(=NNc1nc(N2CCOCC2)nc(N2CCOCC2)n1)c1ccccc1O [DMOHT] ? 100

---

assay: DPPH radical scavenging assay; format: biochemical; settings: antioxidant activity
observable: IC50 (DPPH scavenging) (µg/mL)
Dear colleague, please return just the value in µg/mL, with no unit written.

Some solved cases for reference:
molecule: O=C1O[C@H]([C@@H](O)CO)C(O)=C1O [Ascorbic Acid, ascorbic acid, reference compound]
IC50 (DPPH scavenging), µg/mL: 10.62

molecule: CC(=NNc1nc(N2CCOCC2)nc(N2CCOCC2)n1)c1ccccc1O [DMOHT]
IC50 (DPPH scavenging), µg/mL: 48.2

molecule: CC(=NNc1nc(N2CCOCC2)nc(N2CCOCC2)n1)c1ccccc1[O-].O=[N+]([O-])[O-].[Cu+2] [Complex 3, [Cu(DMOT)(NO3)]]
IC50 (DPPH scavenging), µg/mL: 19.31

molecule: CC(=NNc1nc(N2CCOCC2)nc(N2CCOCC2)n1)c1ccccc1[O-].CC(=O)[O-].[Cu+2] [Complex 2, [Cu(DMOT)(CH3COO)]]
IC50 (DPPH scavenging), µg/mL: 20.93

For the molecule shown here, CC(=NNc1nc(N2CCOCC2)nc(N2CCOCC2)n1)c1ccccc1N [DMAT] , give the reported IC50 (DPPH scavenging). 17.83
